Where these numbers come from: patent US7977341B2

tested on: Stagonospora nodorum; test: Fungicidal activity, microtiter plate format; type: cell-based; conditions: Parastagonospora nodorum; fungal growth on agar, 20° C., 3-5 days; C.V. class in parentheses; read-out: IC50 S. nodorum
readout: IC50

Let me check: CC(C)(C)c1onc(-c2ccc(Cl)cc2Cl)c1C(O)c1cccnc1 (stereo not shown) , system Stagonospora nodorum, measured IC50 is > 100 µM

----------
system: Septoria tritici; experiment: Fungicidal activity, microtiter plate format; format: cell-based; details: Zymoseptoria tritici; fungal growth on agar, 20° C., 3-5 days; C.V. class in parentheses; read-out: IC50 S. tritici
readout: IC50

IC50 recorded for this molecule, CC(C)(C)c1onc(-c2ccc(Cl)cc2Cl)c1C(O)c1cccnc1 (stereo not shown) , is > 100 µM
